study-target: MAP2K7 (human) (UniProt O14733)
Sequence (O14733 whole entry, looked up): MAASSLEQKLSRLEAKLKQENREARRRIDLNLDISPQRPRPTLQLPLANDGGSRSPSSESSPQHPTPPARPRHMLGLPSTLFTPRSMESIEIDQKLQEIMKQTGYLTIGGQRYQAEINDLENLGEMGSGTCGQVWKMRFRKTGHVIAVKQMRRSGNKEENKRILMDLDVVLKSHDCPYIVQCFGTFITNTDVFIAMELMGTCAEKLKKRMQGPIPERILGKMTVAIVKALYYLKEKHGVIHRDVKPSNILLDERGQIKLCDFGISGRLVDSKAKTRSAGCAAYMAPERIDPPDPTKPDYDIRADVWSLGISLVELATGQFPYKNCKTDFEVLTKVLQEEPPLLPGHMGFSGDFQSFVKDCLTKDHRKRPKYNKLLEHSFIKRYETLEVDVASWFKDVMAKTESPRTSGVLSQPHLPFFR
experiment: KINOMEscan competition binding
cond: compound 10.0 µM
metric: kinase still bound, per cent of control (%)
State the answer as a number, implicitly in %.

Some solved entries appear below for comparison.
structure-as-smiles	study-target	metric	readout-value
N#CCNC(=O)c1ccc(-c2ccnc(Nc3ccc(N4CCOCC4)cc3)n2)cc1	MAP2K7 (human) (UniProt O14733)	kinase still bound, per cent of control	100
NC(=O)Nc1cc(-c2cccc(F)c2)sc1C(=O)N[C@@H]1CCCNC1	MAP2K7 (human) (UniProt O14733)	kinase still bound, per cent of control	80
CN(C)C/C=C/C(=O)Nc1ccc(C(=O)Nc2cccc(Nc3nccc(-c4cccnc4)n3)c2)cc1	MAP2K7 (human) (UniProt O14733)	kinase still bound, per cent of control	80
COc1cc2ncn(-c3cc(OCc4ccccc4C(F)(F)F)c(C(N)=O)s3)c2cc1OC	MAP2K7 (human) (UniProt O14733)	kinase still bound, per cent of control	87
C[C@@H](Oc1cc(-c2cnn(C3CCNCC3)c2)cnc1N)c1c(Cl)ccc(F)c1Cl	MAP2K7 (human) (UniProt O14733)	kinase still bound, per cent of control	83
O=C1NC(=O)/C(=C/c2ccc3nccc(-c4ccncc4)c3c2)S1	MAP2K7 (human) (UniProt O14733)	kinase still bound, per cent of control	38
C=CC(=O)Nc1cc(-n2c(=O)ccc3cnc4ccc(-c5cn[nH]c5)cc4c32)ccc1C	MAP2K7 (human) (UniProt O14733)	kinase still bound, per cent of control	14
O=c1cc(N2CCOCC2)oc2c(-c3cccc4c3sc3ccccc34)cccc12	MAP2K7 (human) (UniProt O14733)	kinase still bound, per cent of control	100

INPUT: For MAP2K7 (human) (UniProt O14733), give kinase still bound, per cent of control of the listed compound: COc1ccc(N(C(=O)Oc2c(C)cccc2C)c2ccnc(Nc3ccc(N4CCN(C)CC4)cc3)n2)c(OC)c1
OUTPUT: 85

INPUT: Jot down kinase still bound, per cent of control (MAP2K7 (human) (UniProt O14733)) of COc1cc(C(=O)N2CCC(N3CCN(C)CC3)CC2)ccc1Nc1ncc2c(n1)N(C)c1ccccc1C(=O)N2C .
OUTPUT: 100

INPUT: Report measured kinase still bound, per cent of control on MAP2K7 (human) (UniProt O14733); entry: COCC(=O)NC/C=C/c1ccc2ncnc(Nc3ccc(Oc4ccc(C)nc4)c(C)c3)c2c1
OUTPUT: 100

* * *

study-target: TGFBR1 (human)
experiment: KINOMEscan competition binding
cond: compound 10.0 µM
Listed below: kinase still bound, per cent of control values for each entry.
Form entry: enter the amount, then its unit.

In the examples that follow, each entry is paired with its recorded kinase still bound, per cent of control.
structure-as-smiles	metric	readout-value
O=C1NC(=O)/C(=C/c2ccc3nccc(-c4ccncc4)c3c2)S1	kinase still bound, per cent of control	20%
CS(=O)(=O)N1CCN(Cc2cc3nc(-c4cccc5[nH]ncc45)nc(N4CCOCC4)c3s2)CC1	kinase still bound, per cent of control	100%

Please look at the following compound next.
INPUT: Let me know recorded kinase still bound, per cent of control for CCN(CC)CCCCNc1ncc2cc(-c3cc(OC)cc(OC)c3)c(NC(=O)NC(C)(C)C)nc2n1 , thanks.
OUTPUT: 100%

Cited source: the kinase profiling compilation of Christmann-Franck et al. (2016)
